The next entries give measured pIC50 for BCL-2 binding to biotinylated BAK peptide (Homo sapiens, UniProt P10415).
pIC50: −log10 of the molar value.
readout.type: pIC50

compound: CCCCN(CCCC)C(=O)c1cc(C)n(-c2ccc(NC(=O)N[C@@H]3C[C@H]3c3ccccc3)cc2C(=O)N2Cc3ccccc3C[C@H]2CO)n1 [Example 13]
val: 5.04 to 5.06

compound: CCCCN(CCCC)C(=O)c1cc(C)n(-c2ccc(NC(=O)NC3CCCC3)cc2C(=O)N2Cc3ccccc3C[C@H]2CO)n1 [Example 32]
val: 6.55 to 6.56

compound: CCCCN(CCCC)C(=O)c1cc(C)n(-c2ccc(NC(=O)NCc3cccc(C)c3)cc2C(=O)N2Cc3ccccc3C[C@H]2CO)n1 [Example 17]
val: 7.07

compound: CCCCN(CCCC)C(=O)c1cc(C)n(-c2ccc(NC(=O)Nc3ccc(C)c(C)c3)cc2C(=O)N2Cc3ccccc3C[C@H]2CO)n1 [Example 10]
val: 6.19 to 6.20

compound: CCCCN(CCCC)C(=O)c1cc(C)n(-c2ccc(NC(=O)N[C@@H](C)c3cccc(OC)c3)cc2C(=O)N2Cc3ccccc3C[C@H]2CO)n1 [Example 23]
val: 7.38 to 7.43

compound: CCCCN(CCCC)C(=O)c1cc(C)n(-c2ccc(NC(=O)Nc3ccccc3OCC)cc2C(=O)N2Cc3ccccc3C[C@H]2CO)n1 [Example 28]
val: 6.21 to 6.26

compound: CCCCN(CCCC)C(=O)c1cc(C)n(-c2ccc(NC(=O)Nc3c(C)cccc3CC)cc2C(=O)N2Cc3ccccc3C[C@H]2CO)n1 [Example 34]
val: 6.18 to 6.20

compound: CCCCN(CCCC)C(=O)c1cc(C)n(-c2ccc(NC(=O)NC(C)C)cc2C(=O)N2Cc3ccccc3C[C@H]2CO)n1 [Example 14]
val: 6.45 to 6.46

compound: CCCCN(CCCC)C(=O)c1cc(C)n(-c2ccc(NC(=O)NCC)cc2C(=O)N2Cc3ccccc3C[C@H]2CO)n1 [Example 2]
val: 6.37 to 6.39

compound: CCCCN(CCCC)C(=O)c1cc(C)n(-c2ccc(NC(=O)Nc3cccc(Cc4ccccc4)c3)cc2C(=O)N2Cc3ccccc3C[C@H]2CO)n1 [Example 31]
val: 5.80 to 5.81

compound: CCCCN(CCCC)C(=O)c1cc(C)n(-c2ccc(NC(=O)Nc3ccccc3OC)cc2C(=O)N2Cc3ccccc3C[C@H]2CO)n1 [Example 21]
val: 5.50 to 5.56

compound: CCCCN(CCCC)C(=O)c1cc(C)n(-c2ccc(NC(=O)Nc3c(C)cccc3C)cc2C(=O)N2Cc3ccccc3C[C@H]2CO)n1 [Example 30]
val: 6.69 to 6.72

compound: CCCCN(CCCC)C(=O)c1cc(C)n(-c2ccc(NC(=O)NCc3ccc(Cl)cc3)cc2C(=O)N2Cc3ccccc3C[C@H]2CO)n1 [Example 8]
val: 6.83 to 6.85

compound: CCCCN(CCCC)C(=O)c1cc(C)n(-c2ccc(NC(=O)N[C@H](C)c3ccccc3)cc2C(=O)N2Cc3ccccc3C[C@H]2CO)n1 [Example 9]
val: 6.56 to 6.60
